testSystem: UniProt:Q99705
Sequence (Q99705 whole entry): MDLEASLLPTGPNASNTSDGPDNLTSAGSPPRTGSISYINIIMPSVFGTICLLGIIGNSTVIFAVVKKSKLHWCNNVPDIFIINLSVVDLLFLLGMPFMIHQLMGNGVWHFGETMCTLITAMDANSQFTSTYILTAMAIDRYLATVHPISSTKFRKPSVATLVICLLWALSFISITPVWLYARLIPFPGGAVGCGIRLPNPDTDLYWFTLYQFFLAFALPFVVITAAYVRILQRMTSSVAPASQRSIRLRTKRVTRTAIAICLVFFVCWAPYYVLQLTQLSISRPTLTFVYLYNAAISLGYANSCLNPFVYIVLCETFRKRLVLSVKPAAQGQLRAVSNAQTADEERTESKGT
experimentalDetails: Competition binding, membrane preparations of A293 cells expressing the human MCH1 receptor, [3H] Compound 10 as radioligand
Set-up: expressed in transfected cells
conditionInfo: read-out: hMCH1 Ki; Table 3d
endpointLabel: pKi
Numbers only, as −log10 of the molar value.

# pKi of COC(=O)C1=C(C)NC(=O)N(C(=O)NCCCN2CCC3(CC2)OCc2ccccc23)C1c1ccc(F)c(F)c1 (stereo not shown) = 8.22

###

testSystem: rat MCH1 receptor (Rattus norvegicus, UniProt P97639)
Construct: expressed in transfected cells
Sequence (P97639 whole entry): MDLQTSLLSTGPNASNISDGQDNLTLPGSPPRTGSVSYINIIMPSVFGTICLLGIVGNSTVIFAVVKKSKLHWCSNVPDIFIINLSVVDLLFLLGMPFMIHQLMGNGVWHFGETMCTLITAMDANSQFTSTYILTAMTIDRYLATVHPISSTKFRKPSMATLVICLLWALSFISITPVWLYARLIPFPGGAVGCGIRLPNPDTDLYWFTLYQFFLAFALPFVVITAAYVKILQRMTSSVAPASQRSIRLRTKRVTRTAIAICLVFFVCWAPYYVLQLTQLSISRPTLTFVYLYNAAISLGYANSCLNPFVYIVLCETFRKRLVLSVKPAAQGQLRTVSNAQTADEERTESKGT
experimentalDetails: Binding affinity (Ki) at the rat MCH1 receptor
conditionInfo: Table 3c; read-out: rMCH1 Ki
endpointLabel: Ki (nM)
Give bare numbers, in nM.

- COCC1=C(C(=O)NCCCN2CCC(c3cccc(NC(=O)C(C)C)c3)CC2)[C@@H](c2ccc(F)c(F)c2)NC(=O)N1: 13.7

Count: 2. Required value per item: Ki.
1. CC(=O)Nc1cccc(C2CCN(CCCNC(=O)N3C(=O)O[C@H](C)C3c3ccc(F)c(F)c3)CC2)c1 (stereo partly drawn)
2. CC(C)C(=O)Nc1cccc(C2CCN(CCCC(c3ccc(F)cc3)c3ccc(F)cc3)CC2)c1

Response line:
1: 11.8; 2: 1.6

Count: 3. Required value per item: Ki.
1. CCCC(=O)Nc1cccc(C2CCN(CCCNC(=O)N3C(=O)NC(COC)=C(C(=O)OC)[C@@H]3c3ccc(F)c(F)c3)CC2)c1
2. CC(C)C(=O)Nc1cccc(C2CCN(CC[C@@H](O)c3ccccc3)CC2)c1
3. CC(C)C(=O)Nc1cccc(C2CCN(CC[C@H](Oc3ccc(-c4ccccc4)cc3)c3ccccc3)CC2)c1

Response line:
1. 0.09
2. 16.6
3. 22.2

Count: 8. Required value per item: Ki.
1. CC(C)C(=O)Nc1cccc(C2CCN(CCCC(=O)c3ccccc3)CC2)c1
2. COc1ccc(C(C)=O)cc1O[C@@H](CCN1CCC(c2cccc(NC(=O)C(C)C)c2)CC1)c1ccccc1
3. CC(C)C(=O)Nc1cccc(C2CCN(CC[C@H](Oc3ccc(Br)cc3)c3ccccc3)CC2)c1
4. COCC1=C(C(=O)NCCCN2CCC(c3cccc(NC(=O)CC(C)(C)C)c3)CC2)[C@@H](c2ccc(F)c(F)c2)NC(=O)N1
5. CC(C)C(=O)Nc1cccc(C2CCN(CC[C@H](Oc3ccccc3F)c3ccccc3)CC2)c1
6. COC(CCN1CCC(c2cccc(NC(=O)C(C)C)c2)CC1)c1ccccc1 (stereo not drawn)
7. CC(C)C(=O)Nc1cccc(C2CCN(CC[C@H](O)c3ccccc3)CC2)c1
8. CC(C)C(=O)Nc1cccc(C2CCN(CC[C@H](OC(=O)c3cccc4ccccc34)c3ccccc3)CC2)c1

Response line:
1: 29.5; 2: 22.4; 3: 0.923; 4: 225; 5: 6.6; 6: 29.1; 7: 118; 8: 32.5

# Ki of CC(=O)Nc1cccc(C2CCN(CCCNC(=O)N3C(=O)NC4=C(C(=O)OC4)C3c3ccc4nonc4c3)CC2)c1 (stereo not drawn) = 204

###

testSystem: human Histamine H1 receptor (Homo sapiens, UniProt P35367)
Construct: expressed in transfected cells
Sequence (P35367 whole entry): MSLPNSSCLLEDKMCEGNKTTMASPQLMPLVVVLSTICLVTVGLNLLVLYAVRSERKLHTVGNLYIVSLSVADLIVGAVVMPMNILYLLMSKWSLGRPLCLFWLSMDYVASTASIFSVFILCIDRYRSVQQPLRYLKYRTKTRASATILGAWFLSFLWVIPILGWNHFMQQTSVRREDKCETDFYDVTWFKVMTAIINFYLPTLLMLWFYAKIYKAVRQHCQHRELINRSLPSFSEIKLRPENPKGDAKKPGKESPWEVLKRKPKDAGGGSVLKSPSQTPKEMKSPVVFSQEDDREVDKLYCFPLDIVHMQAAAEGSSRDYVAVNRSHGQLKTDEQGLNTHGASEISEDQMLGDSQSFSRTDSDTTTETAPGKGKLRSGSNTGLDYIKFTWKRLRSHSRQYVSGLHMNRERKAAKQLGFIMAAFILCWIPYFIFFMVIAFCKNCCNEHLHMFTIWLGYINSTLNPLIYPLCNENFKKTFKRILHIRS
experimentalDetails: Binding affinity at the human histamine H1 receptor
conditionInfo: Table 3c; read-out: hH1 Ki
endpointLabel: Ki (µM)
Answers are plain numbers, in µM.

* CC(C)C(=O)Nc1cccc(C2CCN(CC[C@@H](Oc3cc(F)ccc3F)c3ccccc3)CC2)c1 [Example 110] | 0.283
* CCCC(=O)Nc1cccc(C2CCN(CCCNC(=O)N3C(=O)NC(COC)=C(C(=O)OC)[C@@H]3c3ccc(F)c(F)c3)CC2)c1 [Example 44] | 2.59
* CC(=O)Nc1cccc(C2CCN(CCCC(=O)c3ccc(C)c(C)c3)CC2)c1 [Example 57] | 0.823
* COCC(=O)Nc1cccc(C2CCN(CCCNC(=O)N3C(=O)NC(COC)=C(C(=O)OC)[C@@H]3c3ccc(F)c(F)c3)CC2)c1 [Example 39] | 5.66
* CC(=O)Nc1cccc(C2CCN(CCCNC(=O)N3C(=O)O[C@H](C)C3c3ccc(F)c(F)c3)CC2)c1 (stereo partly shown) [Example 131] | 2.84

Count: 3. Required value per item: Ki.
1. COc1ccc(O[C@@H](CCN2CCC(c3cccc(NC(=O)C(C)C)c3)CC2)c2ccccc2)cc1 [Example 106]
2. CC(C)C(=O)Nc1cccc(C2CCN(CCCCc3ccccc3)CC2)c1 [Example 96]
3. COc1cccc(O[C@@H](CCN2CCC(c3cccc(NC(=O)C(C)C)c3)CC2)c2ccccc2)c1 [Example 117]

Response line:
1. 0.304
2. 0.273
3. 0.969

Count: 3. Required value per item: Ki.
1. CC(C)C(=O)Nc1cccc(C2CCN(CC[C@@H](Oc3cc(C(F)(F)F)ccc3F)c3ccccc3)CC2)c1 [Example 121]
2. COc1ccc(C(=O)CCCN2CCC(c3cccc(NC(=O)C(C)C)c3)CC2)c(OC)c1 [Example 78]
3. CC(C)C(=O)Nc1cccc(C2CCN(CC[C@H](Oc3cc(C(F)(F)F)ccc3F)c3ccccc3)CC2)c1 [Example 122]

Response line:
1. 9.39
2. 2.28
3. 3.47

Count: 4. Required value per item: Ki.
1. CC(=O)c1ccccc1O[C@@H](CCN1CCC(c2cccc(NC(=O)C(C)C)c2)CC1)c1ccccc1 [Example 126]
2. CC(C)C(=O)Nc1cccc(C2CCN(CC[C@H](Oc3cc(F)ccc3F)c3ccccc3)CC2)c1 [Example 123]
3. CC(C)C(=O)Nc1cccc(C2CCN(CCCCCCN3C(=O)c4ccccc4C3=O)CC2)c1 [Example 92]
4. COC(CCN1CCC(c2cccc(NC(=O)C(C)C)c2)CC1)c1ccc(C)cc1 (stereo not shown) [Example 99]

Response line:
1: 8; 2: 2.15; 3: 2.45; 4: 2.56

Form: item COC(CCN1CCC(c2cccc(NC(=O)C(C)C)c2)CC1)c1ccc(Cl)cc1 (stereo not shown) [Example 91] ; test system human Histamine H1 receptor (Homo sapiens, UniProt P35367); Ki: 2

###

Can you tell me Ki for the items I'm about to list?
testSystem: rat MCH1 receptor (Rattus norvegicus, UniProt P97639)
Construct: expressed in transfected cells
experimentalDetails: Binding affinity (Ki) at the rat MCH1 receptor
conditionInfo: Examples 142-153; read-out: Ki (nM) rMCH1
Answers without a unit are incomplete; give the number and then its unit.

* Cc1onc(-c2c(Cl)cccc2Cl)c1C(=O)NCCCCCN1CCC(c2cccc(NC(=O)C(C)C)c2)CC1 | 7.1 nM
* CCn1c2ccccc2c2cc(CN3CCC(c4cccc(NC(=O)C(C)C)c4)CC3)ccc21 | 1.7 nM
* CC(C)C(=O)Nc1cccc(C2CCN(CCCNC(=O)C(c3ccccc3)c3ccccc3)CC2)c1 | 2.9 nM
* COc1ccc2[nH]c(-c3ccccc3)c(CCCN3CCC(c4cccc(NC(=O)C(C)C)c4)CC3)c2c1 | 2.3 nM

Read the next record carefully.
# Ki of CC(C)C(=O)Nc1cccc(C2CCN(Cc3c[nH]c4cc(Cl)ccc34)CC2)c1 = 20.6 nM

###

testSystem: rat MCH1 receptor (Rattus norvegicus, UniProt P97639)
Construct: expressed in transfected cells
experimentalDetails: Binding affinity (Ki) at the rat MCH1 receptor
conditionInfo: Examples 38-141; read-out: Ki (nM) rMCH1
Can you tell me Ki for the items I'm about to list?
Answers are plain numbers, in nM.

The examples below pair each entry with its known result.
- CC(C)OC(CCN1CCC(c2cccc(NC(=O)C(C)C)c2)CC1)c1ccccc1 (stereo not shown) [Example 100]: 11.5
- COC(CCN1CCC(c2cccc(NC(=O)C(C)C)c2)CC1)c1ccc(C)cc1 (stereo not shown) [Example 99]: 12
- COCC1=C(C(=O)OC)[C@H](c2ccc(F)c(F)c2)N(C(=O)NCCCN2CCC(c3cccc(N)c3)CC2)C(=O)N1 [Example 38]: 1.34

# Ki of COc1cccc(CC(=O)Nc2cccc(C3CCN(CCCC(=O)c4ccccc4)CC3)c2)c1 [Example 76] = 21

###

testSystem: human dopamine D1 receptor (Homo sapiens)
Sequence (P21728 whole entry): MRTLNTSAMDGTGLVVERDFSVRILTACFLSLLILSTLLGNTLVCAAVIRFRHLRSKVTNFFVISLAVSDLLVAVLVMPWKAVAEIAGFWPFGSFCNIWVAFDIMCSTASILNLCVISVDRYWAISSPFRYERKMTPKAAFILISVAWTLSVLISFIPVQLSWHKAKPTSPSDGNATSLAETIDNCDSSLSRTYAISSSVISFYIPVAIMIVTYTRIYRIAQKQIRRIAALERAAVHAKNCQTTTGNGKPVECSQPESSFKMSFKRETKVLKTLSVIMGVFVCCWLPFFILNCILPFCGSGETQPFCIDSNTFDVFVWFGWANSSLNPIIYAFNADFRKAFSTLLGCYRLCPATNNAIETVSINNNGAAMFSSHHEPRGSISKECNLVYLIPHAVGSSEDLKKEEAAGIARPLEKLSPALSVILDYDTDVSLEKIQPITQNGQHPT
experimentalDetails: Binding affinity at the human dopamine D1 receptor
conditionInfo: Table 3d; read-out: hD1 Ki
Where a name gives a salt, the structure may show the parent alone.
Can you tell me Ki for the items I'm about to list?

* COC(=O)C1=C(C)NC(=O)N(C(=O)NCCCN2CCC3(CC2)OCc2ccccc23)C1c1ccc2nonc2c1 (single isomer, unassigned) [Example 18, HYDROCHLORIDE] | 596 nM

# Ki of COCC1=C(C(=O)OC)[C@H](c2ccc(F)c(F)c2)N(C(=O)NCCCN2CCC(c3cccc(NC(C)=O)c3)CC2)C(=O)N1 [Example 10] = 1930 nM

###

testSystem: human GALR3 receptor (Homo sapiens)
Construct: expressed in transfected cells
Sequence (O60755 whole entry): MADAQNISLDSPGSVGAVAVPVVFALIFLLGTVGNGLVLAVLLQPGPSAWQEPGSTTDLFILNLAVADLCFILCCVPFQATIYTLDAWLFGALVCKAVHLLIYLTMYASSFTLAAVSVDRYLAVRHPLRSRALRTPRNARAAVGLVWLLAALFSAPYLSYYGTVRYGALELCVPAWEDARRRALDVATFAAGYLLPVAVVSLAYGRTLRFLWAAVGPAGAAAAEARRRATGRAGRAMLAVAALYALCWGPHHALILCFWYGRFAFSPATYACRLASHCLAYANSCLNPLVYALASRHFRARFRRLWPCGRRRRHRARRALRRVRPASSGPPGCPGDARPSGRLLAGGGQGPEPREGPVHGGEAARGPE
experimentalDetails: Binding affinity at the human GALR3 receptor
conditionInfo: Table 3b; read-out: hGALR3 Ki
Can you tell me Ki for the items I'm about to list?

Count: 3. Required value per item: Ki.
1. COCC1=C(C(=O)OC)[C@H](c2ccc(F)c(F)c2)N(C(=O)NCCCN2CCC(c3cccc(NC(C)=O)c3)CC2)C(=O)N1
2. CCCCN(CCCC)c1ccc(CNC[C@H]2CC[C@H](NC(=O)c3cccc4ccccc34)CC2)cc1
3. COCC1=C(C(=O)OC)C(c2ccc(F)c(F)c2)N(C(=O)NCCCN2CCC(c3cccc(NC(C)=O)c3)CC2)C(=O)N1 (single isomer, unassigned; (-))

Response line:
1. > 50 µM
2. 5.98 µM
3. > 50 µM

// provenance: patent US20040038855A1
